Origin of the recorded values: paper PMC10431048

# test_summary: Population PK model
# Assay type: in vivo, human
# condition_notes: human, plasma, oral, 800 mg
metric: half-life (h)
Give bare numbers, in h.

Lookup result for CCCCC1=NC2(CCCC2)C(=O)N1Cc1ccc(-c2ccccc2S(=O)(=O)Nc2noc(C)c2C)c(COCC)c1 ; measured half-life: 9.6
